Cited source: paper PMC10069166

As shown below, each of these binders has a reported pKd value.
- experimental-system: Wild-type SARS-CoV-2 full length spike trimer (SARS-CoV-2, wild type (Wuhan-Hu-1), UniProt P0DTC2)
- method-summary: BLI
pKd: −log10 of the molar value.

- binder: "80R_21 antibody (antibody, V domains shown) VH: EVQLVQSGGGVVQPGKSLRLSCVASGFDFSKYAMHWVRQAPGKGLEWVAVISYDGSYKYYADSVKGRFTISRDNSKNTLYLQMNSLRAEDTAVYYCARDNAYYLDYWGQGTLVTVSS VL: TTLTQSPATLSLSPGERATLSCKASEDIGTNLAWYQQKPGQAPRPLIFDAAILAPGIPDRFSGSGSGTDFTLTISRLEPEDFAVYYCMQIYNWPPSFGQGTKVEVK"
  pKd: 8.51
- binder: "80R_5 antibody (antibody, V domains shown) VH: EVQLVQSGGGVVQPGKSLRLSCKASGFAFSNYAMHWVRQAPGKGLEWVAVISYDGSYKYYADSVKGRFTISRDNSKNTLYLQMNSLRAEDTAVYYCARDRSYYLDYWGQGTLVTVSS VL: TTLTQSPATLSLSPGERATLSCKASEDIGTALAWYQQKPGQAPRPLIFDGAILAPGIPDRFSGSGSGTDFTLTISRLEPEDFAVYYCHNVYSWPPTFGQGTKVEVK"
  pKd: 9.33
- binder: "80R_22 antibody (antibody, V domains shown) VH: EVQLVQSGGGVVQPGKSLRLSCVASGFDFKSYAMHWVRQAPGKGLEWVAVISYDGSYKYYADSVKGRFTISRDNSKNTLYLQMNSLRAEDTAVYYCARDNAYYLDYWGQGTLVTVSS VL: TTLTQSPATLSLSPGERATLSCHASEDIGTALAWYQQKPGQAPRPLIFYAAQLAPGIPDRFSGSGSGTDFTLTISRLEPEDFAVYYCAQYWSLPPTFGQGTKVEVK"
  pKd: 8.86
- binder: "80R_8 antibody (antibody, V domains shown) VH: EVQLVQSGGGVVQPGKSLRLSCVASGFDFKNYAMHWVRQAPGKGLEWVAVISYDGKYKYYADSVKGRFTISRDNSKNTLYLQMNSLRAEDTAVYYCARDRSYYLDYWGQGTLVTVSS VL: TTLTQSPATLSLSPGERATLSCIASQDIGTNLAWYQQKPGQAPRPLIFDGAILAPGIPDRFSGSGAGTDFTLTISRLEPEDFAVYYCQQTYNWPPTFGQGTKVEVK"
  pKd: 6.94
- binder: "80R_23 antibody (antibody, V domains shown) VH: EVQLVQSGGGVVQPGKSLRLSCVASGFDFKSYAMHWVRQAPGKGLEWVAVISYDGSYKYYADSVKGRFTISRDNSKNTLYLQMNSLRAEDTAVYYCARDNAYYLDYWGQGTLVTVSS VL: TTLTQSPATLSLSPGERATLSCHASEDIGTNLAWYQQKPGQAPRPLIFDGAQLAPGIPDRFSGSGSGTDFTLTISRLEPEDFAVYYCQQIYNWPPSFGQGTKVEVK"
  pKd: 9.07
- binder: "80R_7 antibody (antibody, V domains shown) VH: EVQLVQSGGGVVQPGKSLRLSCQASGFDFKSYAMHWVRQAPGKGLEWVAVISYDGSIKHYADSVKGRFTISRDNSKNTLYLQMNSLRAEDTAVYYCARDRSYYLDYWGQGTLVTVSS VL: TTLTQSPATLSLSPGERATLSCIASQDIGTALAWYQQKPGQAPRPLIFDGAILAPGIPDRFSGSGAGTDFTLTISRLEPEDFAVYYCMQTWTLPVTFGQGTKVEVK"
  pKd: 8.55
- binder: "80R_19 antibody (antibody, V domains shown) VH: EVQLVQSGGGVVQPGKSLRLSCVASGFDFKSYAMHWVRQAPGKGLEWVAVISYDGSYKYYADSVKGRFTISRDNSKNTLYLQMNSLRAEDTAVYYCARDNAYYLDYWGQGTLVTVSS VL: TTLTQSPATLSLSPGERATLSCHASEDIGTNLAWYQQKPGQAPRPLIFDAAQLAPGIPDRFSGSGSGTDFTLTISRLEPEDFAVYYCMQIHNWPPSFGQGTKVEVK"
  pKd: 9.07
